Quick list: protein stability index per entry.
B1: APBB1IP (parent)
chain: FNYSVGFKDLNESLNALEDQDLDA

- Variants of: B1
- protocol.summary: protein stability index of a GFP-peptide fusion (GPS, HEK-293T) (PSI 1-6); higher = more stable;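 also: lentivirally expressed fusions sorted by FACS into six bins by GFP to DsRed ratio, PSI derived from sequencing read proportions per bin multiplied by bin number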
- run.conditions: c terminus: a fixed tail appended
// no unit, no text: just the number

# variant.notation, protein stability index
measured = [
    ("D23A", 3.79),
    ("F1Y", 4.91),
    ("V5D", 4.65),
    ("S4N", 4.61),
]

For the next question, use this variant.
Exercise: Return reported protein stability index; argument: Q20G
Key: 4.57
